Tested on: M14 melanoma
Experiment: NCI-60 one-dose screen, 48 h (100 = growth as untreated, 0 = no growth, -100 = all killed)
Details: 10 µM unless noted
Protocol: Growth inhibition of the M14 human tumor cell line is measured as a screen for anti-cancer activity. Cells are grown in 96 well plates and exposed to the test compound for 48 hours. Compounds are tested at a single concentration, which is 10^-5 M for most compounds. The reported endpoint is percent growth (GI% or GIPRCNT), where numbers from 0 - 100% represent growth inhibition, and numbers from -100% - 0 represent cell death. For example, a value of 40 represents 60% growth inhibition. […]
Compounds without any hit were thinned out: in the full panel of roughly 83,000, 20% have a hit.
# reported growth; entries follow
Expressed in %, but write only the number.

Reference set (4 entries):
[ask] If you can, please state the reported growth value of O=C(O)c1cn(C2CC2)c2cc(N3CCN(Cc4nnc(Nc5ccccc5)o4)CC3)c(F)cc2c1=O .
[reply] 95.7

[ask] If you can, please state the reported growth value of C#C[C@@]1(O)[C@@H](CO)O[C@@H](n2cc(Cl)c3c(N)ccnc32)[C@@H]1O .
[reply] 85.3

[ask] If you can, please state the reported growth value of Cc1cc(NC(=O)CNc2nc(Oc3ccc(F)cc3)nc(-c3ccc(F)cc3)n2)ccc1Cl .
[reply] 104

[ask] If you can, please state the reported growth value of C#C[C@@]1(O)[C@@H](CO)O[C@@H](n2cc(I)c3c(N)ncnc32)[C@@H]1O .
[reply] 22.4

Continuing:
[ask] If you can, please state the reported growth value of Nc1ccccc1NS(=O)(=O)c1ccc(Cl)cc1 .
[reply] 97.1

[ask] If you can, please state the reported growth value of O=C1c2ccccc2C(=O)c2c1oc1c2c(=O)[nH]c2ccc(Cl)cc21 .
[reply] 10.4

[ask] If you can, please state the reported growth value of Cc1nccc2c3ccc(OCc4cn(-c5ccccc5)nn4)cc3n(CCCc3ccccc3)c12 .
[reply] 83.3

[ask] If you can, please state the reported growth value of CCOC(=O)c1c(C(F)(F)F)n([O-])c2ccc(Cl)cc2[n+]1=O .
[reply] -21.6

[ask] If you can, please state the reported growth value of Nc1c(C(=O)c2ccccc2)sc2nc(-c3cc4ccccc4o3)cc(-c3ccc(Cl)cc3)c12 .
[reply] 107

[ask] If you can, please state the reported growth value of CCCCOc1nc2ccc(C)cc2cc1/C=C/C(=O)/C=C/c1ccc2c(c1)OCO2 .
[reply] 52.4

[ask] If you can, please state the reported growth value of Nc1c(C(=O)Nc2cccc3ccccc23)sc2nc3c(cc12)CCCCC3 .
[reply] 1.3
